Recorded inhibition at 10 µM by entry
target: HIV protease (Human immunodeficiency virus type 1 group M subtype B, UniProt P04585); construct: and purified protease; experiment: HIV Protease Assay; format: biochemical; conditions: pH 5.5, 10 μM inhibitor, 4% DMSO, 450 μM substrate, pH 5.5, 30 minutes at 37° C., RP-HPLC; read-out: HIV Protease % Inhibition at 10 μM
outcome_measure: inhibition at 10 µM (%)

INSERT INTO results (compound, study_system, experimental_result) VALUES
  ('CC(C)[C@H](NC(=O)OCc1ccc(-c2ccccc2)cc1)C(=O)N[C@@H](Cc1ccccc1)[C@H](O)CNC[C@@H](O)[C@H](Cc1ccccc1)NC(=O)OC(C)(C)C', 'HIV protease (Human immunodeficiency virus type 1 group M subtype B, UniProt P04585)', 99),
  ('CC(C)(C)OC(=O)N[C@@H](Cc1ccccc1)[C@H](O)CNC[C@@H](O)[C@H](Cc1ccccc1)NC(=O)[C@@H](O)c1ccccc1', 'HIV protease (Human immunodeficiency virus type 1 group M subtype B, UniProt P04585)', 27),
  ('CC(C)(C)NC(=O)N[C@@H](Cc1ccccc1)[C@H](O)CNC[C@@H](O)[C@H](Cc1ccccc1)NC(=O)OC(C)(C)C', 'HIV protease (Human immunodeficiency virus type 1 group M subtype B, UniProt P04585)', 97),
  ('CCC(C)(C)OC(=O)N[C@@H](Cc1ccccc1)[C@H](O)CNC[C@@H](O)[C@H](Cc1ccccc1)NC(=O)OC(C)(C)CC', 'HIV protease (Human immunodeficiency virus type 1 group M subtype B, UniProt P04585)', 98),
  ('CC(C)(C)OC(=O)N[C@@H](Cc1ccccc1)[C@H](O)CNC[C@@H](O)[C@H](Cc1ccccc1)NC(=O)c1ccc2ccccc2n1', 'HIV protease (Human immunodeficiency virus type 1 group M subtype B, UniProt P04585)', 11),
  ('CC(C)(C)OC(=O)N[C@@H](Cc1ccccc1)[C@H](O)CNC[C@@H](O)[C@H](Cc1ccccc1)NC(=O)C(NC(=O)OCc1ccccc1)C(C)(C)O (single isomer, unassigned; isomer b) [Compound 302]', 'HIV protease (Human immunodeficiency virus type 1 group M subtype B, UniProt P04585)', 99),
  ('CC(C)(C)OC(=O)N[C@@H](Cc1ccccc1)[C@H](O)CNC[C@@H](O)[C@H](Cc1ccc(OCc2ccccc2)cc1)NC(=O)OC(C)(C)C', 'HIV protease (Human immunodeficiency virus type 1 group M subtype B, UniProt P04585)', 99),
  ('CC(C)(C)OC(=O)N[C@@H](Cc1ccccc1)[C@H](O)CNC[C@@H](O)[C@H](Cc1ccccc1)NC(=O)OC(C)(CO)CO', 'HIV protease (Human immunodeficiency virus type 1 group M subtype B, UniProt P04585)', 98),
  ('CC(C)[C@H](NC(=O)[C@@H](O)Cc1ccccc1)C(=O)N[C@@H](Cc1ccccc1)[C@H](O)CNC[C@@H](O)[C@H](Cc1ccccc1)NC(=O)OC(C)(C)C', 'HIV protease (Human immunodeficiency virus type 1 group M subtype B, UniProt P04585)', 99),
  ('CC(C)[C@H](NC(=O)[C@H](Cc1ccccc1)NC(=O)OCc1ccccc1)C(=O)N[C@@H](Cc1ccccc1)[C@H](O)CNC[C@@H](O)[C@H](Cc1ccccc1)NC(=O)OC(C)(C)C', 'HIV protease (Human immunodeficiency virus type 1 group M subtype B, UniProt P04585)', 98),
  ('CC(C)(C)OC(=O)N[C@@H](Cc1ccccc1)[C@H](O)CNC[C@@H](O)[C@H](Cc1ccccc1)NC(=O)C(=O)C(C)(C)C', 'HIV protease (Human immunodeficiency virus type 1 group M subtype B, UniProt P04585)', 98);

====

molecular target: HIV protease (Human immunodeficiency virus type 1 group M subtype B); construct: and purified protease; assay: HIV Protease Assay; assay type: biochemical; conditions: pH 5.5, 10 μM inhibitor, 4% DMSO, 450 μM substrate, pH 5.5, 30 minutes at 37° C., RP-HPLC; read-out: HIV Protease % Inhibition at 10 μM
Each entry below carries its recorded inhibition at 10 µM.
outcome_measure: inhibition at 10 µM

INSERT INTO measurements (molecule, outcome_measure, experimental_result) VALUES
  ('CN(C(=O)NC(C)(C)C)[C@@H](Cc1ccccc1)[C@H](O)CNC[C@@H](O)[C@H](Cc1ccccc1)NC(=O)OC(C)(C)C', 'inhibition at 10 µM', '73%'),
  ('CC(C)(C)OC(=O)N[C@@H](Cc1ccccc1)[C@H](O)CNC[C@@H](O)[C@H](Cc1ccccc1)NC(=O)[C@@H](NC(=O)OCC1COC(=O)N1)C(C)(C)C (stereo partly drawn)', 'inhibition at 10 µM', '100%'),
  ('COCCOc1ccc(C[C@H](NC(=O)OC(C)(C)C)[C@H](O)CNC[C@@H](O)[C@H](Cc2ccccc2)NC(=O)OC(C)(C)CO)cc1', 'inhibition at 10 µM', '99%'),
  ('CC(C)(C)OC(=O)NCC(O)(CNC[C@@H](O)[C@H](Cc1ccccc1)NC(=O)OC(C)(C)C)Cc1ccccc1 (stereo partly drawn)', 'inhibition at 10 µM', '13%'),
  ('CC(C)(C)OC(=O)N[C@@H](Cc1ccccc1)[C@H](O)CNC[C@@H](O)[C@H](Cc1ccccc1)NC(=O)[C@@H](NC(=O)OCc1cc2cccnc2o1)C(C)(C)C', 'inhibition at 10 µM', '99%'),
  ('CC(C)(C)OC(=O)N[C@@H](Cc1ccccc1)[C@H](O)CNC[C@@H](O)[C@H](Cc1ccc(OCCN2CCOCC2=O)cc1)NC(=O)OC(C)(C)C', 'inhibition at 10 µM', '97%');

====

target: HIV protease (Human immunodeficiency virus type 1 group M subtype B, UniProt P04585); construct: and purified protease; test: HIV Protease Assay; type: biochemical; settings: pH 5.5, 10 μM inhibitor, 4% DMSO, 450 μM substrate, pH 5.5, 30 minutes at 37° C., RP-HPLC; read-out: HIV Protease % Inhibition at 10 μM
Counter-ions that a name gives are not always drawn.
Entries and their measured inhibition at 10 µM follow.
outcome_measure: inhibition at 10 µM (%)

INSERT INTO assay_data (molecule, study_system, experimental_result) VALUES
  ('CC(C)[C@H](NC(=O)c1nc2ccccc2[nH]1)C(=O)N[C@@H](Cc1ccccc1)[C@H](O)CNC[C@@H](O)[C@H](Cc1ccccc1)NC(=O)OC(C)(C)C [Compound 101]', 'HIV protease (Human immunodeficiency virus type 1 group M subtype B, UniProt P04585)', 99),
  ('CC(C)(C)OC(=O)N[C@@H](Cc1ccccc1)[C@H](O)CNC[C@@H](O)[C@H](Cc1ccccc1)NC(=O)OCc1nc(-c2ccccc2)c[nH]1 [Compound 253]', 'HIV protease (Human immunodeficiency virus type 1 group M subtype B, UniProt P04585)', 85),
  ('CC(C)(C)OC(=O)NCC(O)[C@H](Cc1ccccc1)NC[C@@H](O)[C@H](Cc1ccccc1)NC(=O)OC(C)(C)C (mixture of isomers) [Compound 188]', 'HIV protease (Human immunodeficiency virus type 1 group M subtype B, UniProt P04585)', 21),
  ('CC(C)(C)OC(=O)N[C@@H](Cc1ccccc1)[C@H](O)CNC[C@@H](O)[C@H](Cc1ccccc1)NC(=O)OC1(C)CCC1 [Compound 160]', 'HIV protease (Human immunodeficiency virus type 1 group M subtype B, UniProt P04585)', 99),
  ('O=C(N[C@@H](Cc1ccccc1)[C@H](O)CNC[C@@H](O)[C@H](Cc1ccccc1)NC(=O)OCc1ccccc1)OCc1ccccc1 [Compound 44]', 'HIV protease (Human immunodeficiency virus type 1 group M subtype B, UniProt P04585)', 58),
  ('CC(C)[C@H](NC(=O)[C@H](C)N)C(=O)N[C@@H](Cc1ccccc1)[C@H](O)CNC[C@@H](O)[C@H](Cc1ccccc1)NC(=O)OC(C)(C)C [Compound 96, fumarate salt]', 'HIV protease (Human immunodeficiency virus type 1 group M subtype B, UniProt P04585)', 100),
  ('CC(C)(C)OC(=O)N[C@@H](Cc1ccccc1)[C@H](O)CNC[C@@H](O)[C@H](Cc1ccccc1)NC(=O)[C@@H](NC(=O)CNC=O)C(C)(C)C (relative stereo) [Compound 286]', 'HIV protease (Human immunodeficiency virus type 1 group M subtype B, UniProt P04585)', 99),
  ('C[C@@H](O)[C@H](NC(=O)OCc1ccccc1)C(=O)N[C@@H](Cc1ccccc1)[C@H](O)CNC[C@@H](O)[C@H](Cc1ccccc1)NC(=O)OC(C)(C)C [Compound 100]', 'HIV protease (Human immunodeficiency virus type 1 group M subtype B, UniProt P04585)', 99),
  ('CC(C)(C)OC(=O)N[C@@H](Cc1ccccc1)[C@H](O)CNC[C@@H](O)[C@H](Cc1ccccc1)NC(=O)OC(C)(C)CNC=O [Compound 236]', 'HIV protease (Human immunodeficiency virus type 1 group M subtype B, UniProt P04585)', 89),
  ('CC(C)[C@H](NC(=O)OCc1ccccc1)C(=O)N[C@@H](Cc1ccccc1)[C@H](O)CNC[C@@H](O)[C@H](Cc1ccccc1)NC(=O)[C@H](CC(N)=O)NC(=O)OCc1ccccc1 [Compound 112, monohydrochloride]', 'HIV protease (Human immunodeficiency virus type 1 group M subtype B, UniProt P04585)', 100),
  ('CC(C)(CO)OC(=O)N[C@@H](Cc1ccccc1)[C@H](O)CNC[C@@H](O)[C@H](Cc1ccccc1)NC(=O)[C@](C)(O)C(C)(C)C [Compound 333]', 'HIV protease (Human immunodeficiency virus type 1 group M subtype B, UniProt P04585)', 100),
  ('CC(C)(C)OC(=O)N[C@@H](Cc1ccccc1)[C@H](O)CNC[C@@H](O)[C@H](Cc1ccccc1)NC(=O)OC(C)(C)Cc1ccccc1 [Compound 154]', 'HIV protease (Human immunodeficiency virus type 1 group M subtype B, UniProt P04585)', 96),
  ('CC(C)(C)OC(=O)N[C@@H](Cc1ccccc1)[C@H](O)CNC[C@@H](O)[C@H](Cc1ccccc1)NC(=O)C1(O)CCOC1 (stereo partly shown) [Compound 330]', 'HIV protease (Human immunodeficiency virus type 1 group M subtype B, UniProt P04585)', 92),
  ('C[C@@H](O)C(C)(C)OC(=O)N[C@@H](Cc1ccccc1)[C@H](O)CNC[C@@H](O)[C@H](Cc1ccccc1)NC(=O)OC(C)(C)C [Compound 275]', 'HIV protease (Human immunodeficiency virus type 1 group M subtype B, UniProt P04585)', 95),
  ('CC(C)[C@H](NC(=O)NCc1nc2ccccc2[nH]1)C(=O)N[C@@H](Cc1ccccc1)[C@H](O)CNC[C@@H](O)[C@H](Cc1ccccc1)NC(=O)OC(C)(C)C (relative stereo) [Compound 273]', 'HIV protease (Human immunodeficiency virus type 1 group M subtype B, UniProt P04585)', 100),
  ('CC(C)(C)OC(=O)N[C@@H](Cc1ccccc1)[C@H](O)CNC[C@@H](O)[C@H](Cc1ccc(OCCOc2cccnc2)cc1)NC(=O)OC(C)(C)C [Compound 304]', 'HIV protease (Human immunodeficiency virus type 1 group M subtype B, UniProt P04585)', 99),
  ('CN(CC(=O)[C@H](Cc1ccccc1)NC(=O)OC(C)(C)C)C[C@H](O)[C@H](Cc1ccccc1)NC(=O)OC(C)(C)C [Compound 199]', 'HIV protease (Human immunodeficiency virus type 1 group M subtype B, UniProt P04585)', 3),
  ('CN(CC(O)[C@H](Cc1ccccc1)NC(=O)OC(C)(C)C)C[C@@H](O)[C@H](Cc1ccccc1)NC(=O)OC(C)(C)C (stereo partly shown) [Compound 198]', 'HIV protease (Human immunodeficiency virus type 1 group M subtype B, UniProt P04585)', 10),
  ('CC(C)[C@H](NC(=O)CC(O)CO)C(=O)N[C@@H](Cc1ccccc1)[C@H](O)CNC[C@@H](O)[C@H](Cc1ccccc1)NC(=O)OC(C)(C)C (relative stereo) [Compound 254]', 'HIV protease (Human immunodeficiency virus type 1 group M subtype B, UniProt P04585)', 98),
  ('CN(Cc1ccccc1)C(=O)N[C@@H](Cc1ccccc1)[C@H](O)CNC[C@@H](O)[C@H](Cc1ccccc1)NC(=O)OC(C)(C)C [Compound 69]', 'HIV protease (Human immunodeficiency virus type 1 group M subtype B, UniProt P04585)', 11),
  ('CC(C)(C)OC(=O)N[C@@H](Cc1ccccc1)[C@H](O)CNC[C@@H](O)[C@H](Cc1ccccc1)NC(=O)OC(C)(C)CF [Compound 252]', 'HIV protease (Human immunodeficiency virus type 1 group M subtype B, UniProt P04585)', 99),
  ('CC(C)(C)OC(=O)N[C@@H](Cc1ccccc1)[C@@H](O)CNC[C@H](O)[C@H](Cc1ccccc1)NC(=O)OC(C)(C)C [Compound 3]', 'HIV protease (Human immunodeficiency virus type 1 group M subtype B, UniProt P04585)', 0);
